# ASSAYED_SYSTEM: T1, human CEACAM5 (carcinoembryonic antigen, CEA) on cells (human, UniProt P06731 35-685)
# T1 construct: endogenous on MKN45 gastric adenocarcinoma cells; full-length cDNA stably transfected in the CHO-K1 clones; also called huCEACAM5; MKN45 cells
# T1 sequence: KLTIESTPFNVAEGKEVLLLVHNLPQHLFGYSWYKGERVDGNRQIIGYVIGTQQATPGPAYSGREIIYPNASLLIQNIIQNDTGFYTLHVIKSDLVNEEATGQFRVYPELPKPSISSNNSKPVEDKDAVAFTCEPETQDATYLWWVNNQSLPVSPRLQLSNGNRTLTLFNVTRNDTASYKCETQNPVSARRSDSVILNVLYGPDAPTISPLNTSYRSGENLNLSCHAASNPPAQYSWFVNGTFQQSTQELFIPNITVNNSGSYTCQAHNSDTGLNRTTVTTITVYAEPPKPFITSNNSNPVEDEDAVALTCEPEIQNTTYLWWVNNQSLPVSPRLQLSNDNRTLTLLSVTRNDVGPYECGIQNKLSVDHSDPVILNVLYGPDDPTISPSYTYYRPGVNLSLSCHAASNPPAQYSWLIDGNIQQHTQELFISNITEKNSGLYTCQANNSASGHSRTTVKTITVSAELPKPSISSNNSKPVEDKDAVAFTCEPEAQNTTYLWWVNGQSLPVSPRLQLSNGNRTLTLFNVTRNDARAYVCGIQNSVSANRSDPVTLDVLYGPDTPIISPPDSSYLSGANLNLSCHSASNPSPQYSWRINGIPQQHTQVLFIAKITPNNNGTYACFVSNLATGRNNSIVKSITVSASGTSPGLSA
# ASSAY_NOTES: flow cytometry, MKN45 cells
Below, each entry is listed alongside its reported pEC50.
Just the number, please; pEC50 means minus log10 of the concentration in mol/L.

Worked cases, pEC50 given:
BINDER	MEASURE	RESULT_NUMBER
P1AE3100 (antibody, IgG1, V domains shown, huIgG1 P329G LALA; also called MFE-H25 / MFE-L28; huMFE23-L28-H25) VH: QVQLVQSGAEVKKPGASVKVSCKASGYTFKDSYMHWVRQAPGQGLEWMGWIDPENGDTEYAPKFQGRVTMTTDTSISTAYMELSRLRSDDTAVYYCNEGTPTGPYYFDYWGQGTLVTVSS VL: EIQMTQSPSSLSASVGDRVTITCRASSSVPYMHWLQQKPGKAPKLLIYSTSNLASGVPSRFSGSGSGTDFTLTISSVQPEDFATYYCQQRSSYPLTFGGGTKLEIK	pEC50	8.00
P1AE3119 (antibody, IgG1, V domains shown, huIgG1 P329G LALA; also called MFE-H24 / MFE-L25) VH: QVQLVQSGAEVKKPGASVKVSCKASGFNIKDSYMHWVRQAPGQGLEWMGWIDPENGDTEYAPKFQGRVTMTTDTSISTAYMELSRLRSDDTAVYYCNEGTPTGPYYFDYWGQGTLVTVSS VL: EIQMTQSPSSLSASVGDRVTITCRASSSVSYMHWYQQKPGKAPKLLIYSTSNLASGVPSRFSGSGSGTDFTLTISSLQPEDFATYYCQQRSSYPLTFGGGTKLEIK	pEC50	7.38
P1AE3102 (antibody, IgG1, V domains shown, huIgG1 P329G LALA; also called MFE-H29 / MFE-L27; huMFE23-L27-H29) VH: QVQLVQSGAEVKKPGSSVKVSCKASGFNIKDSYMHWVRQAPGQGLEWMGWIDPENGDTEYAPKFQGRVTITTDESTSTAYMELSSLRSEDTAVYYCNEGTPTGPYYFDYWGQGTLVTVSS VL: EIQMTQSPSSLSASVGDRVTITCRASSSVPYMHWYQQKPGKAPKLLIYSTSNLASGVPSRFSGSGSGTDFTLTISSVQPEDFATYYCQQRSSYPLTFGGGTKLEIK	pEC50	8.27

Lab note: next binder to report on.
State its pEC50 for this binder: P1AE3103 (antibody, IgG1, V domains shown, huIgG1 P329G LALA; also called MFE-H28 / MFE-L27; huMFE23-L27-H28) VH: QVQLVQSGAEVKKPGASVKVSCKASGFNIKDSYMHWVRQAPGQGLEWMGWIDPENGDTEYAPKFQGRVTMTRDTSISTAYMELSRLRSDDTAVYYCNEGTPTGPYYFDYWGQGTLVTVSS VL: EIQMTQSPSSLSASVGDRVTITCRASSSVPYMHWYQQKPGKAPKLLIYSTSNLASGVPSRFSGSGSGTDFTLTISSVQPEDFATYYCQQRSSYPLTFGGGTKLEIK
8.23

Entry source: patent US20220267464A1
